compounds and their reported hNK2 selectivity ratio
target: recombinant hNK2R expressed in CHO cells (Homo sapiens, UniProt P21452); experiment: Intracellular calcium mobilization (FLIPR) in CHO-hNK2 cells; format: cell-based; details: ratio of EC50s hNK1R/hNK2R
Where a SMILES comes first, the peptide text is derived from it.
measured_property: hNK2 selectivity ratio

compound="CSCC[C@H](NC(=O)[C@H](CC(C)C)N(C)C(=O)CNC(=O)[C@@H](NC(=O)[C@H](Cc1ccccc1)NC(=O)[C@H](CCCCN)NC(=O)[C@@H](N)CC(=O)O)C(C)C)C(N)=O [A, Asp-Lys-Phe-Val-Gly-(NMe-Leu)-Met-NH2]" measured_property="hNK2 selectivity ratio" observed_value=7
compound="CSCC[C@H](NC(=O)[C@H](CC(C)C)N(C)C(=O)CNC(=O)[C@@H](NC(=O)[C@H](Cc1ccccc1)NC(=O)[C@H](CCCNC(=N)N)NC(=O)[C@@H](N)CC(=O)O)C(C)C)C(N)=O [C, Asp-Arg-Phe-Val-Gly-(NMe-Leu)-Met-NH2] (HELM PEPTIDE1{D.R.F.V.G.[meL].M.[am]}$$$$V2.0; N-terminus assumed)" measured_property="hNK2 selectivity ratio" observed_value=2
compound="CCCC[C@H](NC(=O)[C@H](CC(C)C)NC(=O)CCNC(=O)[C@@H](NC(=O)[C@H](Cc1ccccc1)NC(=O)[C@H](CCCNC(=N)N)NC(=O)[C@@H](N)CC(=O)O)C(C)C)C(N)=O [K, Asp-Arg-Phe-Val-(β-Ala)-Leu-Nle-NH2] (HELM PEPTIDE1{D.R.F.V.[bAla].L.[Nle].[am]}$$$$V2.0; N-terminus assumed)" measured_property="hNK2 selectivity ratio" observed_value=25
compound="CCCC[C@H](NC(=O)[C@H](CC(C)C)NC(=O)CNC(=O)[C@@H](NC(=O)[C@H](Cc1ccccc1)NC(=O)[C@H](CCCCN)NC(=O)[C@@H](N)CC(=O)O)C(C)C)C(N)=O [F, Asp-Lys-Phe-Val-Gly-Leu-Nle-NH2]" measured_property="hNK2 selectivity ratio" observed_value=6

---

biological target: human NK2 Receptor (hNK2R) (Homo sapiens, UniProt P21452); assay: [125I]-NKA radioligand competition binding to human recombinant NK2Rs (CHO-hNK2 membranes)
Sequence (P21452 whole entry): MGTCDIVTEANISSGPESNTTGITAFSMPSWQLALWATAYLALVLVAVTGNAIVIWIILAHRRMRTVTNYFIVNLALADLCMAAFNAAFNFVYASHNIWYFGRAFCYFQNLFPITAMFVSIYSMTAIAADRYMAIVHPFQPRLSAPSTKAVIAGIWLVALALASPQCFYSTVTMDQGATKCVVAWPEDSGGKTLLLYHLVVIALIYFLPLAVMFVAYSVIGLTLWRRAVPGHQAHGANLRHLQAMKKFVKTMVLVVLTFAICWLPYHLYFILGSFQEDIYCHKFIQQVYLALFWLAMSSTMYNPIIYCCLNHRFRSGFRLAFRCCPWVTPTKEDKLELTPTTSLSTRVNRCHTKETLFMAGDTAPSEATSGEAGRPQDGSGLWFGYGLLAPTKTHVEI
pKi: −log10 of the molar value. Where no end group is shown, it is not given here.
measured_property: pKi

substance="DRFVGLM-NH2 [H, Asp-Arg-Phe-Val-Gly-Leu-Met-NH2]" measured_property=pKi observed_value=9.51

---

molecular target: recombinant hNK2R expressed in CHO cells (Homo sapiens, UniProt P21452); assay: Intracellular calcium mobilization (FLIPR) in CHO-hNK2 cells; assay type: cell-based; conditions: ratio of EC50s hNK1R/hNK2R
Where a SMILES comes first, the peptide text is derived from it.
Reported hNK2 selectivity ratio values for the following compounds.
measured_property: hNK2 selectivity ratio

compound="CCCC[C@H](NC(=O)[C@H](CC(C)C)NC(=O)CNC(=O)[C@@H](NC(=O)[C@H](Cc1ccccc1)NC(=O)[C@H](CCCNC(=N)N)NC(=O)[C@@H](N)CC(=O)O)C(C)C)C(N)=O [J, Asp-Arg-Phe-Val-Gly-Leu-Nle-NH2] (HELM PEPTIDE1{D.R.F.V.G.L.[Nle].[am]}$$$$V2.0; N-terminus assumed)" tested_on="recombinant hNK2R expressed in CHO cells (Homo sapiens, UniProt P21452)" observed_value=9
compound="CCCC[C@H](NC(=O)[C@H](CC(C)C)NC(=O)CCNC(=O)[C@@H](NC(=O)[C@H](Cc1ccccc1)NC(=O)[C@H](CCCCN)NC(=O)[C@@H](N)CC(=O)O)C(C)C)C(N)=O [Compound G, Asp-Lys-Phe-Val-(β-Ala)-Leu-Nle-NH2] (HELM PEPTIDE1{D.K.F.V.[bAla].L.[Nle].[am]}$$$$V2.0; N-terminus assumed)" tested_on="recombinant hNK2R expressed in CHO cells (Homo sapiens, UniProt P21452)" observed_value=26
compound="CSCC[C@H](NC(=O)[C@H](CC(C)C)NC(=O)CCNC(=O)[C@@H](NC(=O)[C@H](Cc1ccccc1)NC(=O)[C@H](CCCNC(=N)N)NC(=O)[C@@H](N)CC(=O)O)C(C)C)C(N)=O [I, Asp-Arg-Phe-Val-(β-Ala)-Leu-Met-NH2] (HELM PEPTIDE1{D.R.F.V.[bAla].L.M.[am]}$$$$V2.0; N-terminus assumed)" tested_on="recombinant hNK2R expressed in CHO cells (Homo sapiens, UniProt P21452)" observed_value=12
